- MEASUREMENT TARGET: calcium-independent phospholipase A2γ (iPLA2γ) (Homo sapiens, UniProt Q9NP80)
- Construct: gene PNPLA8; 63 kDa recombinant human peroxisomal isoform, N-terminal (His)6 tag
- Sequence (Q9NP80 221-782 limits assumed): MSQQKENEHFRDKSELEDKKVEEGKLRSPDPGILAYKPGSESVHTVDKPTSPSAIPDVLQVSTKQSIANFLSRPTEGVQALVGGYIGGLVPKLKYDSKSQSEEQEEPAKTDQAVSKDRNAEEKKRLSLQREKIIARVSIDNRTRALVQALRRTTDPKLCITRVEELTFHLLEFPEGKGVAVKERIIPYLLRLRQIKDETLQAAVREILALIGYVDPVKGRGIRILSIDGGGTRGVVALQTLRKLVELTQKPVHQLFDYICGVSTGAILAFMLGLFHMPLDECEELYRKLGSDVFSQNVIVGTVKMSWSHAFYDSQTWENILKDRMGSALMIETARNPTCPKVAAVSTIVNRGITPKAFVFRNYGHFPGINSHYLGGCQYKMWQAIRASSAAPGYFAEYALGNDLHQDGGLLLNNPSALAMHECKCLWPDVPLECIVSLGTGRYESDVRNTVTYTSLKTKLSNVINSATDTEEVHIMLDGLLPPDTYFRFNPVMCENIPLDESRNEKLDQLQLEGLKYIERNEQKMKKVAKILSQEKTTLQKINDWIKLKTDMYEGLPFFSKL
- ASSAY REMARKS: purified recombinant PLA2 activity assay (PAPC/diolein SUVs), LPC production by ESI-MS
- Type: biochemical
pIC50: −log10 of the molar value.
READOUT: pIC50

Form field: reported pIC50 of C[N+](C)(C)C[C@@H](CC(=O)O)OC(=O)[C@@]1(CCCCCCOc2ccc(Cl)cc2)CO1
~8.76
